B1: PP1α^301-330 C-tail peptide [human] / human ASPP2^920-1120 [human] (parent complex)
chain 1: KNKGKYGQFSGLNPGGRPITPPRNSAKAKK
chain 2: MRVKFNPLALLLDSSLEGEFDLVQRIIYEVDDPSLPNDEGITALHNAVCAGHTEIVKFLVQFGVNVNAADSDGWTPLHCAASCNNVQVCKFLVESGAAVFAMTYSDMQTAADKCEEMEEGYTQCSQFLYGVQEKMGIMNKGVIYALWDYEPQNDDELPMKEGDCMTIIHREDEDEIEWWWARLNDKEGYVPRNLLGLYPRI

variants of: B1; test: ITC
REPORTED PROPERTY: pKd
Expect pKd as a plain number equal to -log10 of the molar concentration.

In plain terms, chain 1 K30A has a documented pKd of 6.49

In plain terms, chain 1 K27A has a documented pKd of 6.28

In plain terms, chain 1 K29A has a documented pKd of 6.47
